Reference source for all entries: patent US11020399B2

TARGET OR TEST SYSTEM: PI3kδ (Homo sapiens)
ASSAY NAME: Fluorescent (HTRF) determination of PI3 kinase enzyme activity, PI3Kδ
Assay type: biochemical
TEST SETTINGS: 100 nM (Examples 60-137)
OUTCOME MEASURE: inhibition at 0.1 µM

Below, 6 compounds whose answers are already recorded.
>>> reported_measurement("CC(c1oc2cccc(F)c2c(=O)c1-c1cccc(F)c1)n1nc(-c2ccc(S(N)(=O)=O)cc2)c2c(N)ncnc21 (stereo not shown) [Example 60]")
"25 to 50%"
>>> reported_measurement("CC(c1oc2cccc(F)c2c(=O)c1-c1cn[nH]c1)n1nc(-c2ccc(OC(F)F)c(F)c2)c2c(N)ncnc21 (stereo not shown) [Example 91]")
"25 to 50%"
>>> reported_measurement("Cc1nn(C)c2cc(-c3nn(C(C)c4oc5cccc(F)c5c(=O)c4-c4cccc(F)c4)c4ncnc(N)c34)ccc12 (stereo not shown) [Example 79]")
"0 to 25%"
>>> reported_measurement("CNc1ncnc2c1c(-c1ccc(N3CCOCC3)c(F)c1)nn2C(C)c1oc2cccc(F)c2c(=O)c1-c1cccc(F)c1 (stereo not shown) [Example 99]")
"25 to 50%"
>>> reported_measurement("CC(C)C(=O)Nc1ccc(-c2nn(C(C)c3oc4cccc(F)c4c(=O)c3-c3cccc(F)c3)c3ncnc(N4CCOCC4)c23)cc1F (stereo not shown) [Example 87]")
"50 to 75%"
>>> reported_measurement("CC(C)Oc1ccc(-c2nn(C(C)c3oc4cccc(F)c4c(=O)c3-c3ccccc3)c3ncnc(N)c23)cc1F (single isomer, unassigned) [Example 101]")
"0 to 25%"

Quick note, inhibition at 0.1 µM for CC(C)Oc1ccc(-c2nn(C(C)c3oc4cccc(F)c4c(=O)c3-c3cccc(F)c3)c3ncnc(N(C)C)c23)cc1F (stereo not shown) [Example 83] landed at 75 to 100%

Quick note, inhibition at 0.1 µM for CC(c1oc2cccc(F)c2c(=O)c1-c1ccc(F)cc1)n1nc(-c2ccc(OC(F)F)c(F)c2)c2c(N)ncnc21 (single isomer, unassigned) [Example 97] landed at 25 to 50%

Quick note, inhibition at 0.1 µM for CC(C)Oc1ccc(-c2nn(C(C)c3oc4cccc(F)c4c(=O)c3-c3ccc(F)cc3)c3ncnc(N)c23)cc1F (racemic) [Example 94] landed at 25 to 50%

Quick note, inhibition at 0.1 µM for CC(C)Oc1ccc(-c2nn(C(C)c3oc4cccc(F)c4c(=O)c3-c3cccc(F)c3)c3ncnc(N)c23)cc1Cl (stereo not shown) [Example 117] landed at 25 to 50%

Quick note, inhibition at 0.1 µM for CC(c1oc2cccc(F)c2c(=O)c1-c1cccc(F)c1)n1nc(-c2ccc(N3CCOCC3)c(Cl)c2)c2c(N)ncnc21 (single isomer, unassigned) [Example 127] landed at 50 to 75%

Quick note, inhibition at 0.1 µM for Cc1nc2ccc(-c3nn(C(C)c4oc5cccc(F)c5c(=O)c4-c4cccc(F)c4)c4ncnc(N)c34)cc2o1 (stereo not shown) [Example 118] landed at 25 to 50%

Quick note, inhibition at 0.1 µM for COc1c(C)cc(-c2nn(C(C)c3oc4cccc(F)c4c(=O)c3-c3cccc(F)c3)c3ncnc(N)c23)cc1C (stereo not shown) [Example 71] landed at 0 to 25%

---

TARGET OR TEST SYSTEM: PI3kδ (Homo sapiens)
ASSAY NAME: Fluorescent (HTRF) determination of PI3 kinase enzyme activity, PI3Kδ
Assay type: biochemical
TEST SETTINGS: 300 nM (Examples 1-59)
OUTCOME MEASURE: inhibition at 0.3 µM

Below, 5 compounds whose answers are already recorded.
>>> reported_measurement("CC(C)c1nn(C(C)c2oc3cccc(F)c3c(=O)c2-c2cccc(F)c2)c2ncnc(N)c12 (stereo not shown) [Example 35]")
"0 to 25%"
>>> reported_measurement("CNS(=O)(=O)c1ccc(-c2nn(C(C)c3oc4cccc(F)c4c(=O)c3-c3cccc(F)c3)c3ncnc(N)c23)cc1 (stereo not shown) [Example 52]")
"50 to 75%"
>>> reported_measurement("CC(c1oc2cccc(F)c2c(=O)c1-c1cccc(F)c1)n1nc(-c2cc3ccccc3s2)c2c(N)ncnc21 (stereo not shown) [Example 36]")
"25 to 50%"
>>> reported_measurement("CC(c1oc2cccc(F)c2c(=O)c1-c1cccc(F)c1)n1nc(-c2ccc(CNS(C)(=O)=O)cc2)c2c(N)ncnc21 (stereo not shown) [Example 55]")
"25 to 50%"
>>> reported_measurement("CC(c1oc2cccc(F)c2c(=O)c1-c1ccccc1)n1ncc2c(N)ncnc21 (stereo not shown) [Example 29]")
"25 to 50%"

Quick note, inhibition at 0.3 µM for Cc1n[nH]c2cc(-c3nn(C(C)c4oc5cccc(F)c5c(=O)c4-c4cccc(F)c4)c4ncnc(N)c34)ccc12 (stereo not shown) [Example 9] landed at 75 to 100%

Quick note, inhibition at 0.3 µM for CNc1nnc(-c2ccc(-c3nn(C(C)c4oc5cccc(F)c5c(=O)c4-c4cccc(F)c4)c4ncnc(N)c34)cc2)s1 (stereo not shown) [Example 54] landed at 50 to 75%

---

Item-by-item account of inhibition at 1 µM
TARGET OR TEST SYSTEM: PI3kβ (Homo sapiens, UniProt P42338)
Sequence (P42338 whole entry, one chain of several): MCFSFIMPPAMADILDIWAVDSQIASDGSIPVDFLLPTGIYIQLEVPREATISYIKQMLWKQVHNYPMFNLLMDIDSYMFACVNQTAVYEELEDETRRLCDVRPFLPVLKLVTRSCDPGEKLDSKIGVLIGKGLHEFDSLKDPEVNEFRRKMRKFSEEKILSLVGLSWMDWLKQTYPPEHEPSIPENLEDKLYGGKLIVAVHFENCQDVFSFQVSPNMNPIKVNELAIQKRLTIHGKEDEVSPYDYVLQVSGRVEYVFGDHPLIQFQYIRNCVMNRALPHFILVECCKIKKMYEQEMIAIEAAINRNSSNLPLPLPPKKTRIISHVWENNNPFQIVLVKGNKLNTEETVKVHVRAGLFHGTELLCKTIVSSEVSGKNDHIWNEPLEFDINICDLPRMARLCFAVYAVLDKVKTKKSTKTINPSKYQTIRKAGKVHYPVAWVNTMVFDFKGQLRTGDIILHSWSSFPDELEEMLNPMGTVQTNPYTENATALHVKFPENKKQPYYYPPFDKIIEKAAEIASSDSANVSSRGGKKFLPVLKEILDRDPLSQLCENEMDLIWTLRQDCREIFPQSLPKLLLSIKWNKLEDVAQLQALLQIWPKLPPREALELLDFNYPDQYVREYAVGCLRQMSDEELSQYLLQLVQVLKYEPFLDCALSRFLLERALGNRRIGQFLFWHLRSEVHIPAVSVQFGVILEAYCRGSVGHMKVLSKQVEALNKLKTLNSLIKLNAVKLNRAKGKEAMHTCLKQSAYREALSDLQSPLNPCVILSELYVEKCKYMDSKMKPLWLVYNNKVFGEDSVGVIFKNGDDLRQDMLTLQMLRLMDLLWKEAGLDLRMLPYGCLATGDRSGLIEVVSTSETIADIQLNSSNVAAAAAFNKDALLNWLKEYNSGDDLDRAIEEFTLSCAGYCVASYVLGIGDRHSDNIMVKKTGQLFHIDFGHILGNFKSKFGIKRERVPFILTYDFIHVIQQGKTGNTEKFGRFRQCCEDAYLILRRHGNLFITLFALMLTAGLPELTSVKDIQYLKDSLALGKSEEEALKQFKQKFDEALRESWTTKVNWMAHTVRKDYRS
ASSAY NAME: Fluorescent (HTRF) determination of PI3 kinase enzyme activity, PI3Kβ
Type: biochemical
TEST SETTINGS: 1 uM
Source text: Assay 1: Fluorescent Determination of PI3Kinase Kinase Enzyme Activity Phosphoinositide 3 kinases (PI3K) belong to a class of lipid kinases that play a critical role in the regulation of several key cellular processes. […] The homogenous time resolved fluorescence (HTRF) assay allows detection of 3,4,5-triphosphate (PIP3) formed as a result of phosphorylation of phosphotidylinositol 4,5-biphosphate (PIP2) by PI3K isoforms such as α, β, γ or δ. […]

Below, 4 compounds whose answers are already recorded.
>>> reported_measurement("CC(c1oc2cccc(F)c2c(=O)c1-c1cccc(F)c1)n1nc(-c2ccc(N(C)C)c(F)c2)c2c(N)ncnc21 (stereo not shown)")
"50 to 75%"
>>> reported_measurement("CNc1ncnc2c1ncn2C(C)c1oc2cccc(F)c2c(=O)c1-c1cccc(F)c1 (stereo not shown)")
"0 to 25%"
>>> reported_measurement("CSc1nn(C(C)c2oc3cccc(F)c3c(=O)c2-c2cccc(F)c2)c2ncnc(N)c12 (stereo not shown)")
"25 to 50%"
>>> reported_measurement("CC(C)Oc1ccc(-c2nn(Cc3oc4cccc(F)c4c(=O)c3-c3cccc(F)c3)c3ncnc(N)c23)cc1F")
"0 to 25%"

Quick note, inhibition at 1 µM for Cc1cccc2oc([C@H](C)n3nc(-c4ccc(OC(C)C)c(F)c4)c4c(N)ncnc43)c(-c3ccccc3)c(=O)c12 (single isomer, unassigned) landed at 50 to 75%

Quick note, inhibition at 1 µM for `COc1cccc2oc(Cn3cnc4c(N)ncnc43)c(-c3cccc(F)c3)c(=O)c12` landed at 25 to 50%

Quick note, inhibition at 1 µM for CC(c1oc2cccc(F)c2c(=O)c1-c1cccc(F)c1)n1nc(N2CCCCC2)c2c(N)ncnc21 (stereo not shown) landed at 50 to 75%

---

TARGET OR TEST SYSTEM: PI3kδ (Homo sapiens, UniProt O00329)
Sequence (O00329 whole entry): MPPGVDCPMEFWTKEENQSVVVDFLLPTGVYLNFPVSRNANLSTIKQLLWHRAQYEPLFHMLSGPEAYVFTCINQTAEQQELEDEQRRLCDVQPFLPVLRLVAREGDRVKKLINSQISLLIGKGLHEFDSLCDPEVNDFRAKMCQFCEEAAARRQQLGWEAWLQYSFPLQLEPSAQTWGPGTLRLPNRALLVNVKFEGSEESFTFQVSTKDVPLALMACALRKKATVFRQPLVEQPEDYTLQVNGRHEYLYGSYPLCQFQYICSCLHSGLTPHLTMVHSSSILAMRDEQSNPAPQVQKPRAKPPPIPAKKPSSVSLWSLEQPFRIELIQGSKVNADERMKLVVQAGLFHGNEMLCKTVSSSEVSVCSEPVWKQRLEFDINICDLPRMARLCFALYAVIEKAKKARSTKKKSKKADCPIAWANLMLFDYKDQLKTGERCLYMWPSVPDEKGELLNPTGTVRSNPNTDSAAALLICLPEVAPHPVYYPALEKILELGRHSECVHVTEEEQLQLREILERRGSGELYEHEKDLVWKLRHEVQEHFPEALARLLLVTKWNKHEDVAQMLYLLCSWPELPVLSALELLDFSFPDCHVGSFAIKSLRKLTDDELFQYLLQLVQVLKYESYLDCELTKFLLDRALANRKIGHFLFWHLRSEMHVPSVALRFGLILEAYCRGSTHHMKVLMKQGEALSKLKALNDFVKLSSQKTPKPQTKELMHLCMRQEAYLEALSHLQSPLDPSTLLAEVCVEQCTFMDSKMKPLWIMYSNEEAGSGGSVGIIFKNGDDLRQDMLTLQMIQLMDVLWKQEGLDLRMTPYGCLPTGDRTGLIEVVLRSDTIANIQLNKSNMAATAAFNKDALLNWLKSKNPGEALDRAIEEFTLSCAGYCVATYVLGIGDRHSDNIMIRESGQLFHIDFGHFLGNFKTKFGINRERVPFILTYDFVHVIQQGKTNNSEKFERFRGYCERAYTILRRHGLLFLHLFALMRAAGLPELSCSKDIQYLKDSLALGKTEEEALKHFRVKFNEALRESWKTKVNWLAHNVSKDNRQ
Sequence (P27986 whole entry partner): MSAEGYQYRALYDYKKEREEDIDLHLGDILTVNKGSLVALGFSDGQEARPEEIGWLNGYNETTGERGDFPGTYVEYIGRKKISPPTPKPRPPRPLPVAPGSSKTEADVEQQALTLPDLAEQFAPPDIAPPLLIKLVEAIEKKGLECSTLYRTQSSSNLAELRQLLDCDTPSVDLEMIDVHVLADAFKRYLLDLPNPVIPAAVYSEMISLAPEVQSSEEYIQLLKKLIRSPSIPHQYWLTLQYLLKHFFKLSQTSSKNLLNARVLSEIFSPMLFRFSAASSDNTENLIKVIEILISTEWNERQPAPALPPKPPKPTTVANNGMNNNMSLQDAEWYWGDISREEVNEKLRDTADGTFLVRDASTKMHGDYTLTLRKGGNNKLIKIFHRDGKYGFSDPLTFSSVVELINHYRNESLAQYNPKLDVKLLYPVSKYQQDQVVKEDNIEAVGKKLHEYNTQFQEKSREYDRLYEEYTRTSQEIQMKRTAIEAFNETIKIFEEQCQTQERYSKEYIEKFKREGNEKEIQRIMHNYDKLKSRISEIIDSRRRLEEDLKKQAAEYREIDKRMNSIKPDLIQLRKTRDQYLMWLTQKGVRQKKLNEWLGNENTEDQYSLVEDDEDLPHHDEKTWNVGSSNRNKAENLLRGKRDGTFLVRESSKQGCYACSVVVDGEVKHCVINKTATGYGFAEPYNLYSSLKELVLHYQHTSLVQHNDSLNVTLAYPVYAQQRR
ASSAY NAME: Fluorescent (HTRF) determination of PI3 kinase enzyme activity, PI3Kδ
Type: biochemical
TEST SETTINGS: 100 nM (Examples 60-137)
OUTCOME MEASURE: inhibition at 0.1 µM

Below, 3 molecules whose answers are already recorded.
>>> reported_measurement("CC(c1oc2cccc(F)c2c(=O)c1-c1ccc(F)cc1)n1nc(-c2ccc(N3CCOCC3)c(F)c2)c2c(N)ncnc21 (centres unmarked)")
"25 to 50%"
>>> reported_measurement("CC(c1oc2cccc(F)c2c(=O)c1-c1ccc(F)cc1)n1cnc2c(N)nc(F)nc21 (centres unmarked)")
"0 to 25%"
>>> reported_measurement("CC(c1oc2cccc(F)c2c(=O)c1-c1cccc(F)c1)n1nc(-c2ccc(CNC(=O)OC(C)(C)C)o2)c2c(N)ncnc21 (centres unmarked)")
"50 to 75%"

Quick note, inhibition at 0.1 µM for COC(=O)c1ccc(-c2nn(C(C)c3oc4cccc(F)c4c(=O)c3-c3cccc(F)c3)c3ncnc(N)c23)c(F)c1 (centres unmarked) landed at 50 to 75%

Quick note, inhibition at 0.1 µM for COc1nc(N[C@H](C)c2oc3cccc(F)c3c(=O)c2-c2cccc(F)c2)c2nc[nH]c2n1 (single isomer, unassigned) landed at 25 to 50%

Quick note, inhibition at 0.1 µM for CC(c1oc2cccc(F)c2c(=O)c1-c1cccc(F)c1)n1cnc2c(N3CCN(C)CC3)ncnc21 (centres unmarked) landed at 25 to 50%

---

TARGET OR TEST SYSTEM: PI3kβ (Homo sapiens, UniProt P42338)
ASSAY NAME: Fluorescent (HTRF) determination of PI3 kinase enzyme activity, PI3Kβ
Assay type: biochemical
TEST SETTINGS: 1 uM
OUTCOME MEASURE: inhibition at 1 µM

Quick note, inhibition at 1 µM for CC(c1oc2cccc(F)c2c(=O)c1-c1ccccc1)n1ncc2c(N)ncnc21 (centres unmarked) landed at 25 to 50%

Quick note, inhibition at 1 µM for CC(Nc1ncnc2[nH]cnc12)c1oc2cccc(F)c2c(=O)c1-c1cccc(F)c1 (single isomer, unassigned; (-)) landed at 25 to 50%

Quick note, inhibition at 1 µM for CC(C)Oc1ccc(-c2nn(C(C)c3oc4cccc(N5CCOCC5)c4c(=O)c3-c3ccccc3)c3ncnc(N)c23)cc1F (centres unmarked) landed at 25 to 50%

Quick note, inhibition at 1 µM for CC(C)Oc1ccc(-c2nn(C(C)c3oc4cccc(F)c4c(=O)c3-c3cn[nH]c3)c3ncnc(N)c23)cc1F (centres unmarked) landed at 0 to 25%

Quick note, inhibition at 1 µM for CC(c1oc2cccc(F)c2c(=O)c1-c1cccc(F)c1)n1nc(-c2ccc(OC(F)F)c(F)c2)c2c(N)ncnc21 (centres unmarked) landed at 25 to 50%

Quick note, inhibition at 1 µM for CC(c1oc2cccc(F)c2c(=O)c1-c1cccc(F)c1)n1nc(-c2ccc(N3CCOCC3)c(F)c2)c2c(N)ncnc21 (single isomer, unassigned) [Example 59] landed at 25 to 50%

Quick note, inhibition at 1 µM for CC(C)Cc1ccc(-c2nn(C(C)c3oc4cccc(F)c4c(=O)c3-c3cccc(F)c3)c3ncnc(N)c23)cc1 (centres unmarked) landed at 50 to 75%

Quick note, inhibition at 1 µM for Cc1n[nH]c2cc(-c3nn(C(C)c4oc5cccc(F)c5c(=O)c4-c4cccc(F)c4)c4ncnc(N5CCOCC5)c34)ccc12 (centres unmarked) landed at 0 to 25%

Quick note, inhibition at 1 µM for CC(c1oc2cccc(F)c2c(=O)c1-c1cccc(F)c1)n1nc(N2CCOCC2)c2c(N)ncnc21 (centres unmarked) landed at 25 to 50%

Quick note, inhibition at 1 µM for CC(C)C(=O)Nc1ccc(-c2nn(C(C)c3oc4cccc(F)c4c(=O)c3-c3cccc(F)c3)c3ncnc(N4CCOCC4)c23)cc1F (centres unmarked) landed at 50 to 75%

Quick note, inhibition at 1 µM for Cc1ccc(-c2nn(C(C)c3oc4cccc(F)c4c(=O)c3-c3cccc(F)c3)c3ncnc(N)c23)s1 (centres unmarked) landed at 50 to 75%

Quick note, inhibition at 1 µM for CC(c1oc2cccc(F)c2c(=O)c1-c1cccc(F)c1)n1nc(C#CCO)c2c(N)ncnc21 (centres unmarked) landed at 25 to 50%

Quick note, inhibition at 1 µM for CC(c1oc2cccc(F)c2c(=O)c1-c1cccc(F)c1)n1nc(-c2ccc(OC3COC3)c(F)c2)c2c(N)ncnc21 (centres unmarked) landed at 50 to 75%

Quick note, inhibition at 1 µM for CC(c1oc2cccc(F)c2c(=O)c1-c1cccc(F)c1)n1nc(-c2ccc(S(N)(=O)=O)cc2)c2c(N)ncnc21 (centres unmarked) landed at 25 to 50%
